# TEST_SYSTEM: Ba/F3-TPR-MET-D1228N cells (Homo sapiens, UniProt P08581, D1228N, cells depend on it)
# Construct: fused on or other part: P12270 (Nucleoprotein TPR)
# Sequence (P08581 whole entry D1228N, the tested form may be a part): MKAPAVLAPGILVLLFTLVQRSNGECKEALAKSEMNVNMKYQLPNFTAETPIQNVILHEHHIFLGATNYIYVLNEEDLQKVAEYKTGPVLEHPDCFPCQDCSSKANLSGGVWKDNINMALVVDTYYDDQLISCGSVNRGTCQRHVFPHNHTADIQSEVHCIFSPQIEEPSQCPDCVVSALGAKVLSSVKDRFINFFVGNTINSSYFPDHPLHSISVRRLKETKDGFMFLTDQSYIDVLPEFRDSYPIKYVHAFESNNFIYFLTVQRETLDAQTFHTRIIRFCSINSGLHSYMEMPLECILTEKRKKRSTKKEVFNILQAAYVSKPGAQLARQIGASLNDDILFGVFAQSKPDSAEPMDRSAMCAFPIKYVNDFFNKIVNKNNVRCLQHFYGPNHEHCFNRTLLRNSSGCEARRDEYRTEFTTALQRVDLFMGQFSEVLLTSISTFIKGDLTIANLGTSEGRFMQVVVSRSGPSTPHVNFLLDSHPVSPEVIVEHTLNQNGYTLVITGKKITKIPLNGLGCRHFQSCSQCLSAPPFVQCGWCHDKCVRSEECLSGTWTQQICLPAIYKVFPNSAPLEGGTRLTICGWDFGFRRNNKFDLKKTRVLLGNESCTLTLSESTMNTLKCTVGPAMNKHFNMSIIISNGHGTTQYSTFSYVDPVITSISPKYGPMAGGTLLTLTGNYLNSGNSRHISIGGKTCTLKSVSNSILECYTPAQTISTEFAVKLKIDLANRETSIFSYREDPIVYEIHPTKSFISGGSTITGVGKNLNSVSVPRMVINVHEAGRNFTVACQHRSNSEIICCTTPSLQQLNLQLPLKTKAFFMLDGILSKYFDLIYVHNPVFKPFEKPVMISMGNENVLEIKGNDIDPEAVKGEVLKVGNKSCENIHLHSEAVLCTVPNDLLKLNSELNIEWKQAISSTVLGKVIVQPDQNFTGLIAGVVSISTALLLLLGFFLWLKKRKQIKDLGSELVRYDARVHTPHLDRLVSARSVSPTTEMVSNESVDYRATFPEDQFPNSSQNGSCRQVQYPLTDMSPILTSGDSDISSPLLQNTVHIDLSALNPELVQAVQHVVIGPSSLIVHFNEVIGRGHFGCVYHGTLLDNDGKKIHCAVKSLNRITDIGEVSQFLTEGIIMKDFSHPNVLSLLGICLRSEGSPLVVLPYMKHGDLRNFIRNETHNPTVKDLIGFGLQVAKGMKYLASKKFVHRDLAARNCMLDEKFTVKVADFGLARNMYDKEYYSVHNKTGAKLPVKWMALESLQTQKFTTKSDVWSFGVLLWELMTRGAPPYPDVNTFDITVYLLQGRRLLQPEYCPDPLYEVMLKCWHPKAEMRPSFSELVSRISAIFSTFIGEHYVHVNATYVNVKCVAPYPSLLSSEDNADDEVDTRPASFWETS
# PROCEDURE_SUMMARY: CellTiter-Glo Cell Viability Assay, Ba/F3-TPR-MET-D1228N
# SETTINGS: 72 hours
QUANTITY: EC50

| COMPOUND | EC50 |
| --- | --- |
| CNCCOc1cc2nccc(Oc3c(F)cc(NC(=O)c4c(OC)ccnc4F)cc3F)c2cc1OC [Example 4] | 100 to 1000 nM |
| CNCCOc1cc2nccc(Oc3c(F)cc(NC(=O)c4cnccc4OC)cc3F)c2cc1OC [Example 1] | ≤ 100 nM |
| CNCCOc1cc2nccc(Oc3c(F)cc(NC(=O)c4cnccc4OCC(F)F)cc3F)c2cc1OC [Example 60] | ≤ 100 nM |
| CNCCOc1cc2nccc(Oc3c(F)cc(NC(=O)c4cnccc4OC4COC4)cc3F)c2cc1OC [Example 68] | ≤ 100 nM |
| COc1cc2nccc(Oc3c(F)cc(NC(=O)c4cnccc4OC)cc3F)c2cc1OC[C@H](C)O [Example 123] | ≤ 100 nM |
| CNCCOc1cc2nccc(Oc3c(F)cc(NC(=O)c4cnc(F)cc4OC)cc3F)c2cc1OC [Example 44] | 100 to 1000 nM |

Query: EC50; subject: CNCCOc1cc2nccc(Oc3c(F)cc(NC(=O)c4cnccc4OCC4CC4)cc3F)c2cc1OC [Example 72]
Response: ≤ 100 nM

Query: Next: C[C@@H](O)COc1ccc2c(Oc3c(F)cc(NC(=O)c4cnccc4OC4CC4)cc3F)ccnc2c1 [Example 101]
Response: 100 to 1000 nM
